# protocol-summary: gradient 5% acetonitrile 3 min, to 50% in 2 min, to 85% in 15 min, held 3 min, 100 µL/min
# condition-set: column: Zorbax Extend-C18 2.1 x 50 mm; eluents: water / acetonitrile, 0.1% formic acid
attribute-measured: RP-LC retention time (s)

I: Cc1nn(-c2ccc(F)cc2)c(C)c1S(=O)(=O)N1CCC(C(=O)NCc2cccs2)CC1
II: CCN1CCN(CCCNc2nc(-c3ccc(Cl)cc3)nc3ccccc23)CC1
**Query** When I and II are compared, which has the higher number for RP-LC retention time? Give the label under which the chosen entry appears.
**Result** I

====

# protocol-summary: gradient 5% acetonitrile 3 min, to 50% in 2 min, to 85% in 15 min, held 3 min, 100 µL/min
# condition-set: column: Zorbax Extend-C18 2.1 x 50 mm; eluents: water / acetonitrile, 0.1% formic acid
attribute-measured: RP-LC retention time (s)

>  <compound>
CCCN(C)c1nccnc1OC1CCN(C(=O)c2ccoc2)C1 (stereo not given)

>  <readout-unit>
s

>  <RP-LC retention time>
723

$$$$
>  <compound>
Cn1cnc(-c2cc3nccc(Oc4ccc(NC(=S)NC(=O)Cc5ccccc5)cc4F)c3s2)c1

>  <readout-unit>
s

>  <RP-LC retention time>
862

$$$$
>  <compound>
CCCNC(=O)c1cn(-c2ccc(-c3nc(C(C)C)no3)cn2)cn1

>  <readout-unit>
s

>  <RP-LC retention time>
847

$$$$
>  <compound>
COc1ccc(CNC(=O)c2nc3ccccn3c2-c2ccsc2)cc1

>  <readout-unit>
s

>  <RP-LC retention time>
810

$$$$

P: Cn1ncc2c(N3CCOCC3)nc(C(=O)NCCc3cccs3)nc21
Q: O=S(=O)(c1cccc(Cl)c1)N1CCc2nc(-c3ccccc3)ncc2C1
**Query** Lower value for measured RP-LC retention time? Options: P , Q State the label of the item chosen.
**Result** P
(P: 710 s, Q: 1170 s)

P: COc1ccccc1CCNS(=O)(=O)c1cc2c3c(c1)CCC(=O)N3CCC2
Q: Cc1nc2c(n1C)CN(C(=O)c1ccc(Cl)s1)CC2
**Query** // returns P or Q , whichever has the lower RP-LC retention time Mark your selection by writing its label.
**Result** Q
(Q: 574 s, P: 882 s)

====

# protocol-summary: gradient 5% acetonitrile 3 min, to 50% in 2 min, to 85% in 15 min, held 3 min, 100 µL/min
# condition-set: column: Zorbax Extend-C18 2.1 x 50 mm; eluents: water / acetonitrile, 0.1% formic acid
attribute-measured: RP-LC retention time (s)

The cases that follow already have their RP-LC retention time on record.
>  <molecule>
O=C(NCc1ccc(Br)cc1)c1cn2nc(Cl)ccc2n1

>  <RP-LC retention time / s>
882

$$$$
>  <molecule>
COc1ccc(S(=O)(=O)NC2CCN(C(=O)CCc3c[nH]c4ccccc34)CC2)cc1

>  <RP-LC retention time / s>
788

$$$$
>  <molecule>
CCCNC(=O)C1(CCO)CCN(c2ncccn2)C1 (stereo not given)

>  <RP-LC retention time / s>
560

$$$$
>  <molecule>
CCCN1C(=O)COc2ccc(-c3noc(-c4ccccc4C)n3)cc21

>  <RP-LC retention time / s>
1290

$$$$
>  <molecule>
COCC(C)NC(=O)C(=O)c1cn(CC(=O)N2CCOCC2)c2ccccc12 (stereo not given)

>  <RP-LC retention time / s>
704

$$$$
>  <molecule>
CC1CCN(c2nnc(-n3cccc3CN3CCN(c4ccccn4)CC3)s2)CC1

>  <RP-LC retention time / s>
658

$$$$

P: Cc1nc(-c2cnccn2)nc2c1CCC(=O)N2CCC1=CCCCC1
Q: CC(=O)NCC(=O)N1CCCn2cc(-c3ccccc3F)nc21
**Query** Larger number for RP-LC retention time: P , or Q ? Field: selected label. Fill in the label of the entry you choose.
**Result** P

a: Cc1c(Cl)cccc1S(=O)(=O)N1CCCC1c1nc(-c2cccc(F)c2)no1 (stereo not given)
b: COc1ccc(NC(=O)Cn2ncc3c(c2=O)N(C2CC2)C(=O)CS3)cc1OC
**Query** Given a and b , report the one with the higher recorded RP-LC retention time. Return value: the label identifying the chosen record.
**Result** a

1: CCCCn1nc2c(S(=O)(=O)N3CCCCC3)cccn2c1=O
2: CC(C)CCNS(=O)(=O)c1cccc(-c2nc(-c3ccccc3)no2)c1
**Query** Given the two records 1 and 2 , choose the one whose RP-LC retention time value is lower. Kindly give the label for the entry you pick.
**Result** 1
(1: 831 s, 2: 1230 s)

a: C=CCNC(=O)c1cn(-c2cc(-c3nc(C4CC4)no3)ccn2)cn1
b: CCCCn1c(=O)c2ccccc2n(Cc2nc(-c3ccc(Cl)cc3)no2)c1=O
**Query** From the recorded data, which exceeds the other in RP-LC retention time: a or b ? Kindly give the label for the entry you pick.
**Result** b
(b: 1280 s, a: 800 s)

a: O=c1oc2c(-c3ccc([N+](=O)[O-])cc3)cc(O)cc2s1
b: Cc1ccc(S(=O)(=O)N2CCCC2c2nc(-c3ccccc3C)no2)cc1Cl (stereo not given)
**Query** Hi, I'm comparing two records. Which one has the lower RP-LC retention time, a or b ? Which one? Tell me its label.
**Result** a
